assayed.system: human Melanocortin-4 receptor (MC4R) (Homo sapiens (Human), UniProt P32245)
Sequence (P32245 whole entry): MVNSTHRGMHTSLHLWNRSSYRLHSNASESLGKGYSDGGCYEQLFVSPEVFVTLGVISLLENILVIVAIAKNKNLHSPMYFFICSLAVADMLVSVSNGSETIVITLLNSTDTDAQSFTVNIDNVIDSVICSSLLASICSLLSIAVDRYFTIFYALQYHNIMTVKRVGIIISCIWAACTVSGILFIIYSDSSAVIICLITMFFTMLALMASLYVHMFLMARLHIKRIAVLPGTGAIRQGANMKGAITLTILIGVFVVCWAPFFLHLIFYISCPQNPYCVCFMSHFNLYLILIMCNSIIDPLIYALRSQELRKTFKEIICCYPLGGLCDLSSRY
assay.remarks: Functional in vitro MC4R antagonist potency assay (cAMP HTRF in CHO cells)
Assay type: cell-based
condition.parameters: human MC4R in CHO cells, cAMP HTRF, 200 nM aMSH challenge; Kb from IC50 by Leff-Dougall equation; geometric mean; read-out: Kb (nM) Antagonist geometric
Kindly note that classification relies on Kb with these boundaries: bin 0: < 0.5 nM; bin 1: ≥ 0.5 nM and < 40 nM; bin 2: ≥ 40 nM

INSERT INTO measurements (compound, assayed_system, group_label) VALUES
  ('COc1cc([C@@H](C)C(=O)N2CC[C@@]3(CCc4cc(-c5nc(C(F)F)n(C)n5)c(C)nc4N3)C2)nc(C)n1 (single isomer, unassigned)', 'human Melanocortin-4 receptor (MC4R) (Homo sapiens (Human), UniProt P32245)', 'bin 1'),
  ('COc1ncc(F)c(C(C)C(=O)N2CC[C@@]3(CCc4cc(-c5nnn(C)n5)c(C)nc4N3)C2)n1 (single isomer, unassigned)', 'human Melanocortin-4 receptor (MC4R) (Homo sapiens (Human), UniProt P32245)', 'bin 2');

Q: Which band does COc1cc([C@@H](C)C(=O)N2CC[C@@]3(CCc4cc(-c5ncc(C(F)(F)F)cn5)c(C)nc4N3)C2)c(F)cn1 fall in?
A: bin 2

Q: Next record, please: COc1cc([C@@H](C)C(=O)N2CC[C@@]3(CCc4cc(-c5nccnc5C)c(C)nc4N3)C2)c(F)cn1
A: bin 2

Q: Next record, please: COc1cc([C@@H](C)C(=O)N2CC[C@@]3(CCc4cc(-c5nc(C(F)F)n(C)n5)c(C)nc4N3)C2)c(Cl)cn1
A: bin 0

Q: Next record, please: COc1ncc(F)c([C@@H](C)C(=O)N2CC[C@@]3(CCc4cc(-c5nc6ccccn6n5)c(C)nc4N3)C2)n1 (single isomer, unassigned)
A: bin 1

Q: Next record, please: COc1cc([C@@H](C)C(=O)N2CC[C@@]3(CCc4cc(-c5cnsc5)c(C)nc4N3)C2)c(F)cn1
A: bin 1

Q: Next record, please: COc1cc([C@@H](C)C(=O)N2CC[C@@]3(CCc4cc(-c5cnc(C)s5)c(C)nc4N3)C2)c(F)cn1
A: bin 1

Q: Next record, please: COc1cc([C@@H](C)C(=O)N2CCC3(CCc4cc(-c5nc(OC)n(C)n5)c(C)nc4N3)C2)c(Cl)cn1 (single isomer, unassigned) [Example 114]
A: bin 0

Q: Next record, please: COc1cc([C@@H](C)C(=O)N2CC[C@@]3(CCc4cc(-c5ccc(C6CC6)nn5)c(C)nc4N3)C2)c(F)cn1
A: bin 2

====

# Ki per record follows
assayed.system: hMC4R (Homo sapiens (Human), UniProt P32245)
Sequence (P32245 whole entry): as above
assay.remarks: In vitro binding affinity assay using hMC4R (radioligand competition binding, [125I]-(Nle4, D-Phe7)-α-MSH)
condition.parameters: geometric mean, read-out: Ki (nM) geometric mean
Please respond with the number in nM and leave the unit unwritten.

Check out these entries, answers already filled in.
INSERT INTO assay_data (compound, metric, uom, value_observed) VALUES
  ('Cc1nc2c(cc1-c1ncccn1)CC[C@@]1(CCN(C(=O)[C@H](C)c3cc(F)c(F)c(F)c3)C1)N2 (single isomer, unassigned) [Example 56]', 'Ki', 'nM', 0.51),
  ('Cc1nc2c(cc1-c1ncccn1)CC[C@@]1(CCN(C(=O)[C@H](C)c3ccc(F)c(F)c3)C1)N2 (single isomer, unassigned) [Example 51]', 'Ki', 'nM', 120);

Then this compound:
Q: Please give the measured Ki for this compound: Cc1nc2c(cc1-c1ncccn1)CC[C@@]1(CCN(C(=O)[C@H](C)c3cc(N(C)C)ncc3F)C1)N2 (single isomer, unassigned) [Example 82]
A: 120

Taken from patent US12187727B2.
